Molecular target: human RXFP1 (Homo sapiens, UniProt Q9HBX9)
Construct: expressed in transfected cells
Assay: RXFP1 cAMP assay (hRXFP1 HEK293 cAMP assay, HTRF)
Type: cell-based
Settings: HEK293 cells stably expressing human RXFP1, 30 min at room temperature, read-out: cAMP hRXFP1 HEK293 Assay EC50
Quantity Kind: log10(EC50) (log10 of the value in nM)

Compound	Test Target	Quantity Kind	Readout Number
COc1ccc(C2=NOC3COCC23)cc1C(=O)N[C@H]1[C@@H](C(=O)NCCc2cccc(C)c2)[C@H]2CC[C@@H]1/C2=C\C1CC1 (some centres unmarked) [compound 650]	human RXFP1 (Homo sapiens, UniProt Q9HBX9)	log10(EC50)	2.42
COc1c(F)cc(-c2ccc3c(c2)S(=O)(=O)N(C(C)(C)C)C3)cc1C(=O)N[C@H]1[C@@H](C(=O)N[C@H](C)C2(C)CC2)[C@H]2CC[C@@H]1/C2=C\C1CC1 [compound 916]	human RXFP1 (Homo sapiens, UniProt Q9HBX9)	log10(EC50)	0.56
COc1ccc(C2=NO[C@@H]3C[C@H](CO)CN23)cc1C(=O)N[C@H]1[C@@H](C(=O)N[C@H](C)C2(C)CC2)[C@H]2CC[C@@H]1/C2=C\C1CC1 [compound 768]	human RXFP1 (Homo sapiens, UniProt Q9HBX9)	log10(EC50)	0.48
COc1ccc(-c2cc(OC(F)(F)F)ccc2F)cc1C(=O)N[C@@H]1C2CCC(/C2=C/C2CC2)[C@@H]1C(=O)Nc1ccc(F)c(C(F)(F)F)c1 (some centres unmarked) [compound 285]	human RXFP1 (Homo sapiens, UniProt Q9HBX9)	log10(EC50)	0.85
COc1ccc(C2=NOC3CC(CO)CC23)cc1C(=O)N[C@H]1[C@@H](C(=O)Nc2ccc(F)c(C(F)(F)F)c2)[C@H]2CC[C@@H]1/C2=C\C1CCCC1 (some centres unmarked) [compound 445]	human RXFP1 (Homo sapiens, UniProt Q9HBX9)	log10(EC50)	-0.30

###

Target: human RXFP1 (Homo sapiens)
Construct: expressed in transfected cells
Sequence (Q9HBX9 1-757): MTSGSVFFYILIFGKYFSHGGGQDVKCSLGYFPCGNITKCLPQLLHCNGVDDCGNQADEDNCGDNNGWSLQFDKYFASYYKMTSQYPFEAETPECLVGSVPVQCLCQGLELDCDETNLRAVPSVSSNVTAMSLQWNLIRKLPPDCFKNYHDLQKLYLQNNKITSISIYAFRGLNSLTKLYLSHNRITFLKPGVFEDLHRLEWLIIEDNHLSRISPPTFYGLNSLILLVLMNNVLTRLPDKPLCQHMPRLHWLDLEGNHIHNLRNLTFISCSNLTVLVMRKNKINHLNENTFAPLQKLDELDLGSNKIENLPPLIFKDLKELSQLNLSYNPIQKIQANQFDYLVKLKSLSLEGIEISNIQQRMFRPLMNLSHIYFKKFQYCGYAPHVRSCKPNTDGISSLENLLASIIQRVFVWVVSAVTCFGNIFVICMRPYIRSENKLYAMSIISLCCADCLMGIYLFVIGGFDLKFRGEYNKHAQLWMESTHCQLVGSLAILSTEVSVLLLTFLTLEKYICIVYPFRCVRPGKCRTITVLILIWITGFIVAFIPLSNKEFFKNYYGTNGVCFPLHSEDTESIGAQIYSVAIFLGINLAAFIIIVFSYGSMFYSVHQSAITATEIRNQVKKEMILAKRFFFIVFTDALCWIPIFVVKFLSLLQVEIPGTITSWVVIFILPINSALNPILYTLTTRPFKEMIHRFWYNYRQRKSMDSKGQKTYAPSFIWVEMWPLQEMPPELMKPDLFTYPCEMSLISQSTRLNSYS
Assay: RXFP1 cAMP assay (hRXFP1 HEK293 cAMP assay, HTRF)
Type: cell-based
Conditions: HEK293 cells stably expressing human RXFP1, 30 min at room temperature, read-out: cAMP hRXFP1 HEK293 Assay EC50
Quantity Kind: EC50 (nM)

Compound	Readout Number
COc1ccc(C2=NOC3COCC23)cc1C(=O)N[C@H]1[C@@H](C(=O)NC2(Cc3ccccc3)CC2)[C@H]2CC[C@@H]1/C2=C\C1CC1 (some centres unmarked)	285
COc1ccc(C2=NOC3COCC23)cc1C(=O)N[C@H]1[C@@H](C(=O)NC(C)(C)C)[C@H]2CC[C@@H]1/C2=C\C1CC1 (some centres unmarked)	31.5
CNC(=O)c1ccc(F)c(-c2ccc(OC)c(C(=O)N[C@@H]3C4CCC(/C4=C/c4cnoc4)[C@@H]3C(=O)Nc3ccc(F)c(C(F)(F)F)c3)c2)c1 (some centres unmarked)	40
CCc1cccc(/C=C2\C3CCC2[C@H](C(=O)Nc2ccc(F)c(C(F)(F)F)c2)[C@@H]3NC(=O)c2cc(F)c(F)cc2OC)c1 (some centres unmarked)	110
COc1ccc(-c2cc(C(OC(=O)NC34CC(C3)C4)C(F)F)ccc2F)cc1C(=O)N[C@@H]1C2CCC(/C2=C/C2CC2)[C@@H]1C(=O)Nc1ccc(F)c(C(F)(F)F)c1 (some centres unmarked)	1
COc1ccc(-c2cc(C(OC(=O)NC(C)(C)C)C(=O)O)ccc2F)cc1C(=O)N[C@H]1[C@@H](C(=O)Nc2ccc(F)c(C(F)(F)F)c2)[C@H]2CC[C@@H]1/C2=C\C1CCCC1 (some centres unmarked)	0.9
O=C(N[C@H]1[C@@H](C(=O)Nc2ccc(F)c(C(F)(F)F)c2)[C@H]2CC[C@@H]1/C2=C\C1CC1)c1cccc(C2=NOC3COCC23)c1 (single isomer, unassigned) [compound 719]	2490
COc1cc(F)c(F)cc1C(=O)N[C@@H]1C2CCC(/C2=C/c2cccc(OCC(F)(F)F)c2)[C@@H]1C(=O)Nc1ccc(F)c(C(F)(F)F)c1 (some centres unmarked)	400
Cc1ccc(C2=NOC3COCC23)cc1C(=O)N[C@H]1[C@@H](C(=O)Nc2ccc(F)c(C(F)(F)F)c2)[C@H]2CC[C@@H]1/C2=C\C1CC1 (single isomer, unassigned) [compound 654]	300
CC(C)=C1C2CCC1[C@H](C(=O)Nc1ccc(F)c(C(F)(F)F)c1)[C@@H]2NC(=O)c1ccccc1OC(C)C (some centres unmarked)	1100
COc1ccc(-c2cc(S(C)(=O)=O)ccc2F)cc1C(=O)N[C@H]1[C@@H](C(=O)Nc2ccc(F)c(C(F)(F)F)c2)[C@H]2CC[C@@H]1/C2=C\C1CCCC1	0.1
